Tested on: NCI-H2347 (Lung Adenocarcinoma)
Experimental details: Bliss excess, mean over the matrix (fraction); higher = more synergy
Field: Bliss excess. Provide a value for each of the compounds that follow.
Give bare numbers.

Compound: NC1(C(=O)N[C@@H](CCO)c2ccc(Cl)cc2)CCN(c2ncnc3[nH]ccc23)CC1 [Capivasertib] + C[C@@H]1COCCN1C2=NC(=NC(=C2)C3(CC3)[S@](=N)(=O)C)C4=C5C=CNC5=NC=C4 [AZD6738] (first compound max 10 µM, 7x7, partner max 10 µM)
Bliss excess: -0.0218

Now for a further compound.
Reported Bliss excess, compound Cc1cc2ncnn2cc1Nc1ncc2c(n1)n(C1CCOCC1)c(=O)n2C [AZD7648] + O=C(c1cc(Cc2n[nH]c(=O)c3ccccc23)ccc1F)N1CCN(C(=O)C2CC2)CC1 [Olaparib] (first compound max 10 µM, 7x7, partner max 10 µM) : ____
-0.0144

---

Tested on: BT-20 (Breast Carcinoma)
Experimental details: Bliss excess, mean over the matrix (fraction); higher = more synergy
Field: Bliss excess. Provide a value for each of the compounds that follow.
Answers are plain numbers.

Below: 2 compounds and their reported Bliss excess.
Compound: CN(CCO)CC[C@H](CSc1ccccc1)Nc1ccc(S(=O)(=O)NC(=O)c2ccc(N3CCC([C@@H](O)c4ccccc4-c4ccc(Cl)cc4)CC3)cc2)cc1S(=O)(=O)C(F)(F)F [AZD4320] + C[C@@H]1COCCN1C2=NC(=NC(=C2)C3(CC3)[S@](=N)(=O)C)C4=C5C=CNC5=NC=C4 [AZD6738] (first compound max 1 µM, 7x7, partner max 10 µM)
Bliss excess: 0.0778
--
Compound: Cc1c2c(nn1C)CSCc1cc(n(C)n1)CSc1cc(c3ccccc3c1)OCCCc1c(C(=O)O)n(C)c3c-2c(Cl)ccc13 [AZD5991] + Cn1cnc2c(F)c(Nc3ccc(Br)cc3Cl)c(C(=O)NOCCO)cc21 [Selumetinib] (first compound max 1 µM, 7x7, partner max 3 µM)
Bliss excess: 0.153

// input: 2 compounds below; output: Bliss excess for each
1. CC(=O)c1c(C)c2cnc(Nc3ccc(N4CCNCC4)cn3)nc2n(C2CCCC2)c1=O [Palbociclib] + CC1(C)CCC(CN2CCN(c3ccc(C(=O)NS(=O)(=O)c4ccc(NCC5CCOCC5)c([N+](=O)[O-])c4)c(Oc4cnc5[nH]ccc5c4)c3)CC2)=C(c2ccc(Cl)cc2)C1 [Venetoclax] (first compound max 10 µM, 7x7, partner max 1 µM)
2. Cc1cc2ncnn2cc1Nc1ncc2c(n1)n(C1CCOCC1)c(=O)n2C [AZD7648] + O=C(c1cc(Cc2n[nH]c(=O)c3ccccc23)ccc1F)N1CCN(C(=O)C2CC2)CC1 [Olaparib] (first compound max 10 µM, 7x7, partner max 10 µM)

1: -0.0352; 2: -0.0492

---

Test system: KYSE-150 (Esophageal Squamous Cell Carcinoma)
Experimental details: combination Emax (second highest fraction inhibited in the dose matrix, 72 h); higher = more inhibition; extreme values may be limits of the assay
Field: combination Emax. Provide a value for each of the compounds that follow.
One number for each entry.

Compound: CCN(CCO)CCCOc1ccc2c(Nc3cc(CC(=O)Nc4cccc(F)c4)[nH]n3)ncnc2c1 [AZD2811] + O=C(c1cc(Cc2n[nH]c(=O)c3ccccc23)ccc1F)N1CCN(C(=O)C2CC2)CC1 [Olaparib] (first compound max 1 µM, 7x7, partner max 10 µM)
Property: combination Emax
Val: 0.515
--
Compound: COc1nnc2ccc(N3CCC(c4ccc(OCCN5CCN(C)C(=O)[C@H]5C)cc4)CC3)nn12 [AZD5153] + C=CCn1c(=O)c2cnc(Nc3ccc(N4CCN(C)CC4)cc3)nc2n1-c1cccc(C(C)(C)O)n1 [AZD1775] (first compound max 1 µM, partner max 1 µM)
Property: combination Emax
Val: 0.666
--
Compound: COc1cccc(OCCCN)c1-c1cc(Nc2cnc(C#N)cn2)n[nH]1 [Prexasertib] + C[C@@H]1COCCN1C2=NC(=NC(=C2)C3(CC3)[S@](=N)(=O)C)C4=C5C=CNC5=NC=C4 [AZD6738] (first compound max 1 µM, 7x7, partner max 10 µM)
Property: combination Emax
Val: 0.621
--
Compound: Cc1nc(Nc2ncc(C(=O)Nc3c(C)cccc3Cl)s2)cc(N2CCN(CCO)CC2)n1 [Dasatinib] + CC(=O)Nc1cccc(-n2c(=O)n(C3CC3)c(=O)c3c(Nc4ccc(I)cc4F)n(C)c(=O)c(C)c32)c1 [Trametinib] (first compound max 2 µM, 7x7, partner max 1 µM)
Property: combination Emax
Val: 0.743
--
Compound: Cc1cc2ncnn2cc1Nc1ncc2c(n1)n(C1CCOCC1)c(=O)n2C [AZD7648] + C=CCn1c(=O)c2cnc(Nc3ccc(N4CCN(C)CC4)cc3)nc2n1-c1cccc(C(C)(C)O)n1 [AZD1775] (first compound max 10 µM, partner max 1 µM)
Property: combination Emax
Val: 0.643

// input: 7 compounds below; output: combination Emax for each
1. CCc1c2c(nc3ccc(O)cc13)-c1cc3c(c(=O)n1C2)COC(=O)[C@]3(O)CC [SN-38] + O=C(c1cc(Cc2n[nH]c(=O)c3ccccc23)ccc1F)N1CCN(C(=O)C2CC2)CC1 [Olaparib] (first compound max 0.3 µM, 7x7, partner max 10 µM)
2. COc1cccc(OCCCN)c1-c1cc(Nc2cnc(C#N)cn2)n[nH]1 [Prexasertib] + CN(C)CCCOc1ccc(-c2ccc3ncc4c(c3c2)n(C2CCOCC2)c(=O)n4C)cn1 [AZD0156] (first compound max 1 µM, 7x7, partner max 1 µM)
3. CCc1c2c(nc3ccc(O)cc13)-c1cc3c(c(=O)n1C2)COC(=O)[C@]3(O)CC [SN-38] + CN(C)CCCOc1ccc(-c2ccc3ncc4c(c3c2)n(C2CCOCC2)c(=O)n4C)cn1 [AZD0156] (first compound max 0.3 µM, 7x7, partner max 1 µM)
4. Cc1c2c(nn1C)CSCc1cc(n(C)n1)CSc1cc(c3ccccc3c1)OCCCc1c(C(=O)O)n(C)c3c-2c(Cl)ccc13 [AZD5991] + CC1(C)CCC(CN2CCN(c3ccc(C(=O)NS(=O)(=O)c4ccc(NCC5CCOCC5)c([N+](=O)[O-])c4)c(Oc4cnc5[nH]ccc5c4)c3)CC2)=C(c2ccc(Cl)cc2)C1 [Venetoclax] (first compound max 1 µM, 7x7, partner max 1 µM)
5. CS(=O)(=O)CCNCc1ccc(-c2ccc3ncnc(Nc4ccc(OCc5cccc(F)c5)c(Cl)c4)c3c2)o1 [Lapatinib] + C[C@@H](Oc1cc(-c2cnn(C3CCNCC3)c2)cnc1N)c1c(Cl)ccc(F)c1Cl [Crizotinib] (first compound max 10 µM, 7x7, partner max 10 µM)
6. CN(CCO)CC[C@H](CSc1ccccc1)Nc1ccc(S(=O)(=O)NC(=O)c2ccc(N3CCC([C@@H](O)c4ccccc4-c4ccc(Cl)cc4)CC3)cc2)cc1S(=O)(=O)C(F)(F)F [AZD4320] + C=CCn1c(=O)c2cnc(Nc3ccc(N4CCN(C)CC4)cc3)nc2n1-c1cccc(C(C)(C)O)n1 [AZD1775] (first compound max 1 µM, partner max 1 µM)
7. CC1(C)CCC(CN2CCN(c3ccc(C(=O)NS(=O)(=O)c4ccc(NCC5CCOCC5)c([N+](=O)[O-])c4)c(Oc4cnc5[nH]ccc5c4)c3)CC2)=C(c2ccc(Cl)cc2)C1 [Venetoclax] + COc1cc(Nc2ncc3c(n2)-c2ccc(Cl)cc2C(c2c(F)cccc2OC)=NC3)ccc1C(=O)O [Alisertib] (first compound max 1 µM, 7x7, partner max 10 µM)

1. 0.728
2. 0.365
3. 0.732
4. 0.17
5. 0.984
6. 0.432
7. 0.516

Reported combination Emax, compound C[C@@H](c1ccc2nccn2c1)n1nnc2ncc(-c3cnn(C)c3)nc21 [Savolitinib] + Cc1c2c(nn1C)CSCc1cc(n(C)n1)CSc1cc(c3ccccc3c1)OCCCc1c(C(=O)O)n(C)c3c-2c(Cl)ccc13 [AZD5991] (first compound max 1 µM, 7x7, partner max 1 µM) : ____
0.219

Data provenance is the supplement of paper PMC11061612.
